Tested on: Enterococcus faecalis
protocol.summary: Antibacterial activity against Enterococcus faecalis 29212 by broth microdilution method
Assay type: functional
Listed next: entries and their corresponding MIC.
Give just the numeric value; µg/mL need not be written.

CC[C@H]1OC(=O)[C@H](C)C(=O)[C@H](C)[C@@H](O[C@@H]2O[C@H](C)C[C@H](N(C)C)[C@H]2O)[C@](C)(OC)C[C@@H](C)C(=O)[C@H](C)[C@@H]2[C@@H]1OC(=O)N2CCCCc1cnc2ccccc2c1    0.1

Shifting focus to the molecule that follows.
Quickly give me recorded MIC for CC[C@H]1OC(=O)[C@H](C)C(=O)[C@H](C)[C@@H](O[C@@H]2O[C@H](C)C[C@H](N(C)C)[C@H]2O)[C@](C)(OC)C[C@@H](C)C(=O)[C@H](C)[C@@H]2[C@@H]1OC(=O)N2CCCC(C)(C)n1cnc(-c2cccnc2)c1 0.1

----------
# Lookup of reported MIC keyed by entry
System: Streptococcus pyogenes
protocol.summary: Antibacterial activity against Streptococcus pyogenes 8668 by broth microdilution method
Assay type: functional

As a guide, the following entries are already answered.
CC[C@H]1OC(=O)[C@H](C)C(=O)[C@H](C)[C@@H](O[C@@H]2O[C@H](C)C[C@H](N(C)C)[C@H]2O)[C@](C)(OC)C[C@@H](C)C(=O)[C@H](C)[C@@H]2[C@@H]1OC(=O)N2CCCCn1ccc2ccccc21    ≤ 0.05 µg/mL
CC[C@H]1OC(=O)[C@H](C)C(=O)[C@H](C)[C@@H](O[C@@H]2O[C@H](C)C[C@H](N(C)C)[C@H]2O)[C@](C)(OC)C[C@@H](C)C(=O)[C@H](C)[C@@H]2[C@@H]1OC(=O)N2CCCC(C)(C)n1cnc(-c2cccnc2)c1    ≤ 0.05 µg/mL

Hello, please tell me recorded MIC for this one: CC[C@H]1OC(=O)[C@H](C)C(=O)[C@H](C)[C@@H](O[C@@H]2O[C@H](C)C[C@H](N(C)C)[C@H]2O)[C@](C)(OC)C[C@@H](C)C(=O)[C@H](C)[C@@H]2[C@@H]1OC(=O)N2CCCCn1cnc2cccnc21 ≤ 0.05 µg/mL

----------
Recorded MIC by entry
System: Streptococcus pneumoniae
protocol.summary: Antibacterial activity against Streptococcus pneumoniae 280-962 by broth microdilution method
Assay type: functional

Would you please look over these solved cases?
CC[C@H]1OC(=O)[C@H](C)C(=O)[C@H](C)[C@@H](O[C@@H]2O[C@H](C)C[C@H](N(C)C)[C@H]2O)[C@](C)(OC)C[C@@H](C)C(=O)[C@H](C)[C@@H]2[C@@H]1OC(=O)N2CCCCn1ccc2c(N)cccc21    ≤ 0.05 µg/mL
CC[C@H]1OC(=O)[C@H](C)C(=O)[C@H](C)[C@@H](O[C@@H]2O[C@H](C)C[C@H](N(C)C)[C@H]2O)[C@](C)(OC)C[C@@H](C)C(=O)[C@H](C)[C@@H]2[C@@H]1OC(=O)N2CCCCc1ccc2ccccc2n1    ≤ 0.05 µg/mL
CC[C@H]1OC(=O)[C@H](C)C(=O)[C@H](C)[C@@H](O[C@@H]2O[C@H](C)C[C@H](N(C)C)[C@H]2O)[C@](C)(OC)C[C@@H](C)C(=O)[C@H](C)[C@@H]2[C@@H]1OC(=O)N2CCCCn1cnc(-c2cccnc2)c1    ≤ 0.05 µg/mL

Kindly consider the entry below.
Read the entry CC[C@H]1OC(=O)[C@H](C)C(=O)[C@H](C)[C@@H](O[C@@H]2O[C@H](C)C[C@H](N(C)C)[C@H]2O)[C@](C)(OC)C[C@@H](C)C(=O)[C@H](C)[C@@H]2[C@@H]1OC(=O)N2CCCC(C)(C)n1cnc(-c2cccnc2)c1 and write its reported MIC. ≤ 0.05 µg/mL
